Cited source: ChEMBL document CHEMBL1153748

System: Peroxisome proliferator-activated receptor alpha (Homo sapiens)
Sequence (Q07869 whole entry, the tested form may be a part): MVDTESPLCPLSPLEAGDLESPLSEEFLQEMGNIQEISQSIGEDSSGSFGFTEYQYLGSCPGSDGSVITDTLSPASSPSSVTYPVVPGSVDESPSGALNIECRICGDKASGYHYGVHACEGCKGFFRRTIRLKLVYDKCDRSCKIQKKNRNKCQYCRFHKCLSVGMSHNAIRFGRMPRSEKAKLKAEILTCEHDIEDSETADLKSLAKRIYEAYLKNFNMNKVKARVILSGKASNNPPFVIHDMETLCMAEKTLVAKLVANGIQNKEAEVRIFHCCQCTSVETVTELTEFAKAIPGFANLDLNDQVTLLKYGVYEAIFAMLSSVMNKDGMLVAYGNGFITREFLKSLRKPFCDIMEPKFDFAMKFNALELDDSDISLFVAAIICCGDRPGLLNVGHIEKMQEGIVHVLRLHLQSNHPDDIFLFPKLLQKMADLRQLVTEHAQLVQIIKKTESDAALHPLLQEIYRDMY
Protocol: Agonist activity at human PPARalpha ligand binding domain expressed in human 293T cells co-transfected with Gal4-DBD by luciferase transactivation assay
Assay type: cell-based
Condition Details: read-out: EC50
Observation Type: EC50

>>> endpoint_result("COc1ccc(-c2nc(COc3ccc4c(ccn4CC(=O)O)c3)sc2-c2ccc(C(F)(F)F)cc2)cc1")
"> 10 µM"
>>> endpoint_result("Cc1cc(OCc2nc(-c3ccc(Cl)cc3)c(-c3ccccc3)s2)ccc1OCC(=O)O")
"> 10 µM"
>>> endpoint_result("Cc1cc(OCc2nc(-c3ccc4c(c3)OCCO4)c(-c3ccc(OC(F)(F)F)cc3)s2)ccc1OCC(=O)O")
"> 10 µM"
>>> endpoint_result("COc1ccc(-c2nc(COc3ccc(OCC(=O)O)c(C)c3)sc2-c2ccc3ccccc3c2)cc1")
"> 10 µM"
>>> endpoint_result("Cc1cc(OCc2nc(-c3ccc(-c4ccccc4)cc3)c(-c3ccc(-c4ccccc4)cc3)s2)ccc1OCC(=O)O")
"> 10 µM"
>>> endpoint_result("COc1ccc(-c2nc(COc3ccc(OCC(=O)O)c(C)c3)oc2-c2ccc(OC)cc2)cc1")
"> 10 µM"
>>> endpoint_result("COc1cccc(-c2nc(COc3ccc(OCC(=O)O)c(C)c3)sc2-c2ccc(OC(F)(F)F)cc2)c1")
"> 10 µM"
>>> endpoint_result("COc1ccc(-c2nc(COc3ccc4c(CC(=O)O)cccc4c3)sc2-c2ccc(C(F)(F)F)cc2)cc1")
"> 10 µM"
>>> endpoint_result("CCCc1c(OCCCSc2ccc(CC(=O)O)cc2Cl)ccc2c(CC)noc12 [L-165461]")
"1.3 µM"
>>> endpoint_result("Cc1cc(OCc2nc(-c3ccc(C(=O)N4CCCCC4)cc3)c(-c3ccc(OC(F)(F)F)cc3)s2)ccc1OCC(=O)O")
"1.59 µM"
